experiment: soluble on expression in E. coli; label from the status in PepcDB or PDB records
Parameter Measured: soluble on expression in E. coli

1) MTTSDSRSFMYRLLKFISRQPIQLSRLFARMLAGLVNTLKLTKTSRTIQLNLKITLPYLNDQQRERIIQNAIRNELTSYMEFFSIWGSSNQKNISRIHHVEGADFFHQAIAENKGIVLIVPHFGTWEIMNAWCAQYTDMTILYKPVKDKDADRFVREARSREQAKLVPTDESGVRQIFKALKQGGTTVILPDHTPNVGGEMVDYFGIPLASSNLSAKLIQKTKAKALFLYAIRNENHGFDMFIEPMDPAIYQGTDHDGTLVIHHAIEDLIRKYPDHYHWSYKRFKA; not soluble
2) MGSDKIHHHHHHMSVQISVVAATLNEIDNIEQFIDGVEGVLKGMEFEIIVVDDNSSDGTKEYLARRMNEDTHVVVIENPYRFGMLRSLKLGIEKAGGEIVLVMDADMQHPPSAIPKLISRIVDGCDIVVGSRYVDGGSAGDRDAFRAALSRGAEFLAHALVPSSRMTSDPMSGFFAFRRDLRHDFAYRQTFATADYGAKILLIILAENRHAKVCDVGYVFQSRMRGKSKIVSGTSFLKRYLAELFEVMKLERRYRHMQ; not soluble
3) AHHHHHHGSKKRLPASRVYIKDILEGYFVKSEGDFEPNYLITKDARKIYRAKIVGTVIREPLIAEDETYGKFQIDDGTGVIWVLGFRDDTKFAKLVKKGDLVQVIGKIAEWRDDKQILVEGVAKVHPNMWILHRYETLKEKIEHARKAKIAFEIYNTYGITAKSKVIAKNKGVPEELLETIDELYGIIMEEKAMEEPVEELIEEEITEEGKEENEILEKVKQEILEILRSKKIAVSRKYILKKLGEKYDEETIEDAIAELLADGEIYEPETGYYKLL; not soluble
